Biological target: Trx (Mus musculus)
Construct: These lysates were compared to a control group and used to quantify TrxR and Trx activity and expression; These fractions were used to quantify TrxR and Trx activity and expression; endogenous in cells
Settings: cytosol, GL261 exposed 24 h
Endpoint label: pIC50
// field semantics: pIC50 = negative decimal log of concentration (mol/L)

Can you look up the measured pIC50 of C[CH2][Hg][S]c1ccccc1C(=O)[O-].[Na+] for me?
5.92

---

Biological target: Trx (Mus musculus, UniProt P97493)
Construct: These lysates were compared to a control group and used to quantify TrxR and Trx activity and expression; These fractions were used to quantify TrxR and Trx activity and expression; endogenous in cells
Sequence (P97493 60-166): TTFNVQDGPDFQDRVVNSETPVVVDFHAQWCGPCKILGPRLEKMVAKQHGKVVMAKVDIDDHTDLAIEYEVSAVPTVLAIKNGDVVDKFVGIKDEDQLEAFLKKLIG
Details: mitochondria, GL261 exposed 24 h
Endpoint label: pIC50
As a rule, pIC50 stands for the negative log10 of the concentration, concentration in M.

API: value(readout= pIC50, system= Trx (Mus musculus, UniProt P97493), query= C[CH2][Hg][S]c1ccccc1C(=O)[O-].[Na+] )
5.80

---

Test system: GL261 cells
Assay: cells
Format: cell-based, mouse
Conditions: Mus musculus; GL261, 48 h exposure; read-out: EC50 (LDH assay)
Endpoint label: EC50

# EC50 lookup, item Cn1nnc2c(C(N)=O)ncn2c1=O [TMZ, temozolomide]
> 800 µM

---

System: GL261 cells
Experiment: cells
Format: cell-based, mouse
Settings: GL261, 72 h exposure; read-out: IC50 (MTT assay)
Endpoint label: IC50 (nM)
Numeric answer only, unit nM assumed.

Quick one: IC50 of C[CH2][Hg] ?
970

Also, C[CH2][Hg][S]c1ccccc1C(=O)[O-].[Na+] please.
920

These measurements were taken from paper PMC9260667.
